Values compiled from patent US4742053A.

System: P. aeruginosa AK109
Test Method Notes: MIC by agar plate dilution method
Type: cell-based
Recorded Conditions: Pseudomonas aeruginosa, AK109, P. aeruginosa AK109; 10^6 CFU/ml; read-out: Minimum Inhibitory Concentration
Description: The minimum inhibitory concentrations (MIC: μg/ml) of the compounds of the present invention against various microorganisms were measured by an agar plate dilution method (inoculum size: 10^6 CFU/ml) by using Sensitivity Disk Agar (Nissui) in comparison with Cefotaxime and Ceftazidime as comparative compounds. Minimum Inhibitory Concentration (μg/ml; 10^6 CFU/ml)
Observed Property: MIC (µg/mL)
Write down the numeric answer in µg/mL and omit the unit.

// known answers, use as guide
>>> meas_value("CO/N=C(\\C(=O)NC1C(=O)N2C(C(=O)[O-])=C(C[N+]3(C)CCc4ccccc4C3)CSC12)c1csc(N)n1 (stereo not shown)")
6.25
>>> meas_value("CO/N=C(\\C(=O)N[C@@H]1C(=O)N2C(C(=O)O)=C(COC(C)=O)CS[C@H]12)c1csc(N)n1 [Cefotaxime, reference compound]")
6.25

Moving on to another compound below.
Recorded result, CON=C(C(=O)NC1C(=O)N2C(C(=O)[O-])=C(C[N+]3(C)CCc4c(ccc(O)c4O)C3)CSC12)c1csc(N)n1 (stereo not shown) , MIC: 0.2

---

Tested on: P. aeruginosa AK109
Test Method Notes: MIC by agar plate dilution method
Assay type: cell-based
Recorded Conditions: Pseudomonas aeruginosa, AK109, P. aeruginosa AK109; 10^6 CFU/ml; read-out: Minimum Inhibitory Concentration
Observed Property: MIC (µg/mL)
Write down the numeric answer in µg/mL and omit the unit.

// known answers, use as guide
>>> meas_value("CO/N=C(\\C(=O)NC1C(=O)N2C(C(=O)[O-])=C(C[N+]3(C)CCc4cc(OC)c(OC)cc4C3)CSC12)c1csc(N)n1 (stereo not shown)")
25
>>> meas_value("CON=C(C(=O)NC1C(=O)N2C(C(=O)[O-])=C(C[N+]3(C)CCc4cc(O)c(O)cc4C3)CSC12)c1csc(N)n1 (stereo not shown)")
0.78
>>> meas_value("CC(C)(ON=C(C(=O)NC1C(=O)N2C(C(=O)[O-])=C(C[N+]3(C)CCc4cc(O)c(O)cc4C3)CSC12)c1csc(N)n1)C(=O)O (stereo not shown)")
0.025
>>> meas_value("CON=C(C(=O)NC1C(=O)N2C(C(=O)[O-])=C(C[N+]3(C)CCc4cc(O)c(O)c(O)c4C3)CSC12)c1csc(N)n1 (stereo not shown)")
25
>>> meas_value("C[N+]1(CC2=C(C(=O)[O-])N3C(=O)C(NC(=O)C(=NOC4(C(=O)O)CCCC4)c4csc(N)n4)C3SC2)CCc2cc(O)c(O)cc2C1 (stereo not shown)")
0.2

Moving on to another molecule below.
Recorded result, CO/N=C(\C(=O)NC1C(=O)N2C(C(=O)[O-])=C(C[N+]3(C)CCc4cc(O)ccc4C3)CSC12)c1csc(N)n1 (stereo not shown) , MIC: 1.56

---

Tested on: P. vulgaris No. 33
Test Method Notes: MIC by agar plate dilution method
Assay type: cell-based
Recorded Conditions: Proteus vulgaris; P. vulgaris No. 33; 10^6 CFU/ml; read-out: Minimum Inhibitory Concentration
Each record here notes measured MIC.

>>> meas_value("CC(C)(ON=C(C(=O)NC1C(=O)N2C(C(=O)[O-])=C(C[N+]3(C)CCc4cc(O)c(O)cc4C3)CSC12)c1csc(N)n1)C(=O)O (stereo not drawn)")
"1 µg/mL"
>>> meas_value("CO/N=C(\\C(=O)N[C@@H]1C(=O)N2C(C(=O)O)=C(COC(C)=O)CS[C@H]12)c1csc(N)n1 [Cefotaxime, reference compound]")
"≤ 0.05 µg/mL"
>>> meas_value("CO/N=C(\\C(=O)NC1C(=O)N2C(C(=O)[O-])=C(C[N+]3(C)CCc4ccccc4C3)CSC12)c1csc(N)n1 (stereo not drawn)")
"0.2 µg/mL"
>>> meas_value("CON=C(C(=O)NC1C(=O)N2C(C(=O)[O-])=C(C[N+]3(C)CCc4cc(O)c(O)cc4C3)CSC12)c1csc(N)n1 (stereo not drawn)")
"0.2 µg/mL"
>>> meas_value("CO/N=C(\\C(=O)NC1C(=O)N2C(C(=O)[O-])=C(C[N+]3(C)CCc4cc(O)ccc4C3)CSC12)c1csc(N)n1 (stereo not drawn)")
"0.1 µg/mL"

Moving on to another compound below.
Recorded result, C[N+]1(CC2=C(C(=O)[O-])N3C(=O)C(NC(=O)C(=NOC4(C(=O)O)CCCC4)c4csc(N)n4)C3SC2)CCc2cc(O)c(O)cc2C1 (stereo not drawn) , MIC: 6.25 µg/mL
